- subjectOfTest: T1, CD27 expressed on the cell surface (HT1080_CD27 cells) (human, UniProt P26842 20-260)
- T1 construct: whole, on cells; also called K562_CD27
- T1 sequence (looked up): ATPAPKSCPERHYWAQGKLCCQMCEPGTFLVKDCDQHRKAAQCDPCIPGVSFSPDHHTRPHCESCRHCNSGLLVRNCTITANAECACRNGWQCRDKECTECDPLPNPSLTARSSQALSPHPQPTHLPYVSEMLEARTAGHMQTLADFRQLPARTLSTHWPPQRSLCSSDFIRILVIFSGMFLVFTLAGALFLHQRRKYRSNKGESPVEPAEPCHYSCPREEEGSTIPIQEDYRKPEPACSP
- assayDetails: cellular binding assay, HT1080_CD27 cells; further: test concentration or dose not given here
Use 300 RFU as the dividing line for Cellular binding assay [RFU], with the line itself on the TRUE side and lower values as FALSE.

>>> category("P018.S.09.A.E05 (antibody, V domains shown, V regions on human Ig constant parts; also called AB27_155) VH: QSLEESGGRLVTPGTPLTLTCTVSGIDLSRYDMSWVRQAPGKGLEWIGFIGASGSTYYASWVKGRFTISKTSTTVDLKITSPTTEDTATYFCAREETDSRGYYYSLWGPGTPVTVSS VL: ALVMTQTPASVEAAVGGTVTINCQASQSISDLLGWYQQKPGQPPKLLIYDASDLASGVPSRFSGSGSGTEFTLTISGVQSDDAATYYCQQGYSINNVDNAFGGGTEVVVK")
"TRUE"
>>> category("P018.S.09.A.C03 (antibody, V domains shown, V regions on human Ig constant parts; also called AB27_148) VH: QSVEESGGRLVTPGTPLTLTCTVSGFSLSSYGMIWVRQAPGKGLEWIGWISSNDNKYYARWAKGRFTISKTSTTVDLKMTSLTTEDTATYFCVRNGVYNTGNYFDLWGQGTLVTVSS VL: AQVLTQTPSSVSAAVGGTVTINCQASQSLYNNKNLAWYQQKPGQPPKFLIYTASSLASGVSSRFKGSGSGTQFTLTISDVQSDDAATYYCQGEFDCDSDDCFAFGGGTEVVVK")
"TRUE"
>>> category("P018.S.10.A.E01 (antibody, V domains shown, V regions on human Ig constant parts; also called AB27_175) VH: QEQLVESGGGLVQPEGSLTLTCTATGIDFSTNYRSCWVRQAPGKGLEWIACIDTDDSDSTYYASWAKGRFTISKTSSTTVTLQMTSLTAADTATYFCTRAYTTSDYAWSFYLWGPGTLVTVSS VL: DLVMTQTPASVEAAVGGTVTIKCQTSQSISKFLNWYQQTPGQPPKLLIYRASTLESGVPSRFEGSGSGTEFTLTISDLESADAATYYCQCTYGGTSGSVWAFGGGTEVVVK")
"FALSE"
>>> category("P018.S.04.A.E04 (antibody, V domains shown, V regions on human Ig constant parts; also called AB27_75) VH: QSVEESGGRLVTPGTPLTLTCTVSGFSLSTYAMNWIRQAPGKGLEWIGTITTGGSTFFASWAKGRFTISKTSTTVDLKITSPTTEDTATYFCARGGDTGYGFSYFDLWGQGTLVTVSS VL: AVVLTQTPASVSEPVGGTVTIKCQASENIYSSLAWYQQKPGQPPKLLIYDASTLASGVPSRFKGSGSGTEYTLTISGVQSDDAATYYCQQGYSTSNLVNPFGGGTELVVN")
"FALSE"
>>> category("P018.S.02.A.G04 (antibody, V domains shown, V regions on human Ig constant parts; also called AB27_39) VH: QSLEESGGRLVTPGGSLTLTCTVSGIDLSSYAMGWVRQAPGKGLEYIGIIYTSNRTHYATWAKGRFTISKSSTTVDLKATSLTTEDTATYFCGRYGRGSGGYYYGMDLWGPGTLVTVSS VL: DIVMTQTPASVEAAVGGTVTIKCQASQSGDNYCSWYQQKPGQPPKLLIYQASKLTSGVPSRFRGSRSGTEYTLTISDLESADAATYYCQNYCAGSGVCLGIAFGGGTEVVVK")
"FALSE"
>>> category("P018.S.01.A.D04 (antibody, V domains shown, V regions on human Ig constant parts; also called AB27_12) VH: QEQLEESGGRLVTPGGTLTLTCTASGFSLSNYDMSWVRQAPGKGLEWIGYIWSDGNTDYASWAAGRFTASRASTTVDLKMTSLTTEDTATYFCARGYTGFFLWGPGTLVTVSS VL: DVVMTQTPSSVSTAVGDTVTIKCQASQSIGSSYLSWYQQKPGQPPKLLIYKTSTLASGVPSRFKGSGSGTEFTLTISDLESDDAATYYCQCTYYGGSWRVAFGGGTEVVVK")
"TRUE"
>>> category("P018.S.06.A.A03 (antibody, V domains shown, V regions on human Ig constant parts; also called AB27_96) VH: QSVEESGGRLVTPGTPLTLTCTVSGFSLSSNAMTWVRQAPGKGLEWIGFINTGSSTYYASWAKGRFTISKTSTTVDLKITSPTTEDTATYFCARDADDSRGYYWGLWGQGTLVTVSS VL: AYDMTQTPASVPAAVGGTVTIKCQASEDIYSLLAWYQQKPGQPPKLLIYDASDLASGVPSRFRGSGSGTDYTLTISGVESADAATYYCQQGYTTYTTVDNIFGGGTEVVVK")
"TRUE"
>>> category("P018.S.01.A.E03 (antibody, V domains shown, V regions on human Ig constant parts; also called AB27_15) VH: QSVEESGGRLVTPGTPLTLTCTVSGFSLSSYAMGWVRQAPGKGLQWIGILYRNDAASYANWAKGRFTISKTSTTVDLTMPSLTTEDTATYFCVRGYVNDGYYNLWGQGTLVTVSS VL: AYDMTQTPASVEVAVGGTVTIKCQASESIGYRLAWYQQKSGQPPKLLIFDASDLASGVPSRFKGSGSGKHFTLTISGVQSADAATYYCQQDYSYSIIDNSFGGGTEVVVK")
"TRUE"
>>> category("P018.S.08.A.H02 (antibody, V domains shown, V regions on human Ig constant parts; also called AB27_142) VH: QSLEESGGRLVTPGTPLTLTCTASGFSLSYYYMTWVRQAPGKGLEWIGITGGGGDTYYGTWAKGRFTISKTSTTVDLKMTSPTTEDTATYFCARGTDGAAHTGFALWGQGTLVTVSS VL: DIVMTQTPASVEAAVGGTVTIKCQASEDISSRLSWYQQKPGQPPKLLIYLASTLASGVPSRFKGSGSGTQFTLTISDLESADAATYYCQSSSYGTSTIYGTFGGGTEVVVK")
"TRUE"
>>> category("P018.S.08.A.E02 (antibody, V domains shown, V regions on human Ig constant parts; also called AB27_139) VH: QSLEESGGRLVTPGGSLTLTCTVSGIDLSSYDMNWVRQAPGEGLEWIGAISTGGDTHYTNWAKGRFTISKTSTTVDLKMTSLTAADTATYFCARGYYTLALWGQGTLVTVSS VL: DPVLTQTPASVEAAVGGTVTIKCQASQSINSWLSWYQQKPGQPPKRLIYDTSTLESGVPSRFSGGESGTEFTLTISDLESDDAATYYCQSYYYITSSYAITFGGGTEVVVK")
"TRUE"
